All values here come from ChEMBL document CHEMBL1201862.

A collection of molecules and their measured GI50
- Test system: HCC 2998
- Method: NCI tumour cell line growth inhibition, 48 h
Active and inactive are the calls of the source. No stated cut-off is given here; in the data, active = GI50 up to about 1.1 µM and inactive = higher.

Please report GI50 for the following molecule: `C[C@@]1(OC(=O)c2cc([N+](=O)[O-])cc([N+](=O)[O-])c2)C[C@@H]2CCCC[C@@H]21` > 100 µM (inactive)

Please report GI50 for the following molecule: COc1ccc(N2C(=O)CSC2c2cc3cc(Br)ccc3nc2Cl)cc1 (stereo not given) > 50 µM (inactive)

Please report GI50 for the following molecule: `CC(C)C(/C=C/c1ccc(Br)cc1)=N\NC(N)=O` 12.3 µM (inactive)

Please report GI50 for the following molecule: O=C1c2ccccc2C2(O)c3cc4ccccc4cc3OC12O (stereo not given) 54 µM (inactive)

Please report GI50 for the following molecule: C[N+](C)(C)C(Cc1c[nH]c(=S)[nH]1)C(=O)O (stereo not given) > 100 µM (inactive)

***
Please report GI50 for the following molecule: CNC(=O)C(C)NC(=O)C(Cc1ccccc1)NC(=O)OC(C)(C)C (stereo not given) > 100 µM (inactive)

Please report GI50 for the following molecule: CC(=O)O[C@H]1CCC2[C@@H]3CCC4C(=O)c5oncc5C[C@]4(C)C3CC[C@@]21C (stereo not given in full) > 100 µM (inactive)

Please report GI50 for the following molecule: `CC(C)(C)C(=O)OCC(COC(=O)C(C)(C)C)[N+](=O)[O-]` > 100 µM (inactive)

Please report GI50 for the following molecule: `CCCCCCC(=O)C/C(CCC(=O)N(Cc1ccccc1)Cc1ccccc1)=N\NC(N)=O` > 100 µM (inactive)

Please report GI50 for the following molecule: `Nc1nc(Cl)cc(NCC2(O)CCCC2)n1` > 100 µM (inactive)
